Test system: ATP;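 also: ATP exposure 15 min at 22 °C before imaging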
Test: switch fluorescence ratio, 500 uM ATP over buffer (Cy3 cluster intensity, sum of 5 cycles each) (fold (ratio)); higher = stronger signal-on switching upon ATP binding; sequences stand for … in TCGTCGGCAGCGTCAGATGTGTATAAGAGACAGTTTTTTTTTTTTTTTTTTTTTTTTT…TC
Details: aptamer strand: ATP DNA aptamer (quencher-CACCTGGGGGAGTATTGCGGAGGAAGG + anchor), 100 nM annealed; ATP concentration: 500 uM
value.kind: switch fluorescence ratio
Answer using only a numeral; do not append any unit.

Observe how each entry below is paired with its result.
| sequence.data | tested.on | switch fluorescence ratio |
| --- | --- | --- |
| CGCTGGATGG | ATP | 0.985 |
| TGTTGGCGCG | ATP | 0.989 |
| AGTTGTAAAG | ATP | 0.985 |

Shifting focus to the sequence that follows.
Query `AGTAAAGCGG` yields switch fluorescence ratio of 1

* * *

Test system: ATP;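 also: ATP exposure 15 min at 22 °C before imaging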
Assay: switch fluorescence ratio, 500 uM ATP over buffer (Cy3 cluster intensity, sum of 5 cycles each) (fold (ratio)); higher = stronger signal-on switching upon ATP binding; sequences stand for … in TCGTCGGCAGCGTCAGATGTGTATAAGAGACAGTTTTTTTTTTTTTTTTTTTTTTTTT…TC
Conditions: aptamer strand: ATP DNA aptamer (quencher-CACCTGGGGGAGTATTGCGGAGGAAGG + anchor), 100 nM annealed; ATP concentration: 500 uM
Catalogue of switch fluorescence ratio values
Answer using only a numeral; do not append any unit.

Observe how each entry below is paired with its result.
| sequence.data | tested.on | value.kind | measurement |
| --- | --- | --- | --- |
| GAGGGATTTT | ATP | switch fluorescence ratio | 1.02 |
| AAGTGGGGCT | ATP | switch fluorescence ratio | 1 |
| TTAAGCTGTT | ATP | switch fluorescence ratio | 1.01 |
| TGTTTTTTGG | ATP | switch fluorescence ratio | 0.991 |
| TAGCTAGTCG | ATP | switch fluorescence ratio | 1.01 |
| CAGTGGGAAA | ATP | switch fluorescence ratio | 1.01 |

Query `AGAGTTCCGG` yields switch fluorescence ratio of 1

Query `TATGTGGGTC` yields switch fluorescence ratio of 1.02

Query `GGATGGGGCG` yields switch fluorescence ratio of 0.995

Query `TGGAGCTTGA` yields switch fluorescence ratio of 1.02

Query `CTAATAGGAG` yields switch fluorescence ratio of 1

Query `TGATTCGTTT` yields switch fluorescence ratio of 0.985

* * *

Catalogue of switch fluorescence ratio values
Test system: ATP;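 also: ATP exposure 15 min at 22 °C before imaging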
Assay: switch fluorescence ratio, 500 uM ATP over buffer (Cy3 cluster intensity, sum of 5 cycles each) (fold (ratio)); higher = stronger signal-on switching upon ATP binding; sequences stand for … in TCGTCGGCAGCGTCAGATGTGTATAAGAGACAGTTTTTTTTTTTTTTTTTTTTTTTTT…TC
Conditions: aptamer strand: ATP DNA aptamer (quencher-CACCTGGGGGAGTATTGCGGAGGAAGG + anchor), 100 nM annealed; ATP concentration: 500 uM
Answer using only a numeral; do not append any unit.

Observe how each entry below is paired with its result.
| sequence.data | tested.on | switch fluorescence ratio |
| --- | --- | --- |
| GTTTTCAAGT | ATP | 0.979 |
| CCTTTAGGTT | ATP | 1 |
| CGGAAGGGAG | ATP | 0.996 |
| ATGATAATGT | ATP | 0.985 |
| AAATGGAGTA | ATP | 1.01 |

Query `ATTTGTGTTA` yields switch fluorescence ratio of 1.01

Query `TGTTGTTTTT` yields switch fluorescence ratio of 0.991

Query `AGTAAATGGA` yields switch fluorescence ratio of 0.985

Query `CAAATGGAAG` yields switch fluorescence ratio of 0.998

Query `TTTCATGTAT` yields switch fluorescence ratio of 1.01

Query `GGTGCCTGGG` yields switch fluorescence ratio of 1

Query `AGGAAAGTGT` yields switch fluorescence ratio of 1.01

Query `AAAGGCGTTA` yields switch fluorescence ratio of 0.997

Query `ACATTAGTAG` yields switch fluorescence ratio of 1.02

* * *

System: ATP;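 also: ATP exposure 15 min at 22 °C before imaging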
Assay: switch fluorescence ratio, 500 uM ATP over buffer (Cy3 cluster intensity, sum of 5 cycles each) (fold (ratio)); higher = stronger signal-on switching upon ATP binding; sequences stand for … in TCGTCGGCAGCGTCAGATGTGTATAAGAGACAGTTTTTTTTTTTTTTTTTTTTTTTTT…TC
Conditions: aptamer strand: ATP DNA aptamer (quencher-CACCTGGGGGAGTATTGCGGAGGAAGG + anchor), 100 nM annealed; ATP concentration: 500 uM
value.kind: switch fluorescence ratio
Answer using only a numeral; do not append any unit.

Observe how each entry below is paired with its result.
| sequence.data | tested.on | measurement |
| --- | --- | --- |
| TTGAAGCAAA | ATP | 1.44 |
| CAGGTAGGTA | ATP | 0.977 |
| TATGTGGGCT | ATP | 0.987 |
| TCTCATAGTA | ATP | 0.997 |
| GCGAGGTTGA | ATP | 1.04 |
| TAAAGGCACG | ATP | 1.03 |

Query `TTCTTGGGAT` yields switch fluorescence ratio of 1

Query `GGTTGTTTCG` yields switch fluorescence ratio of 0.969

* * *

Catalogue of switch fluorescence ratio values
Test system: ATP;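 also: ATP exposure 15 min at 22 °C before imaging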
Assay: switch fluorescence ratio, 500 uM ATP over buffer (Cy3 cluster intensity, sum of 5 cycles each) (fold (ratio)); higher = stronger signal-on switching upon ATP binding; sequences stand for … in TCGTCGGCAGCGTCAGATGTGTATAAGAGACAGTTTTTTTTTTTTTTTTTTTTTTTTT…TC
Conditions: aptamer strand: ATP DNA aptamer (quencher-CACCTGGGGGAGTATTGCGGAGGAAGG + anchor), 100 nM annealed; ATP concentration: 500 uM
Answer using only a numeral; do not append any unit.

Observe how each entry below is paired with its result.
| sequence.data | switch fluorescence ratio |
| --- | --- |
| GAGTGGGGTT | 1.01 |
| GCCCTAGTGT | 1.13 |

Query `ACAATTTATT` yields switch fluorescence ratio of 1.02

Query `CTCATATAGC` yields switch fluorescence ratio of 0.999

Query `CTTAGGGCTC` yields switch fluorescence ratio of 1.03

Query `AGGTAGCATG` yields switch fluorescence ratio of 1.01

Query `TACGGGCGCG` yields switch fluorescence ratio of 0.981

Query `TATGAGGTTC` yields switch fluorescence ratio of 0.983

Query `GATTAGAAGT` yields switch fluorescence ratio of 0.996

Query `TTTTCTCAGC` yields switch fluorescence ratio of 1.05

Query `CGGCAGTATG` yields switch fluorescence ratio of 1.02

* * *

System: ATP;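 also: ATP exposure 15 min at 22 °C before imaging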
Assay: switch fluorescence ratio, 500 uM ATP over buffer (Cy3 cluster intensity, sum of 5 cycles each) (fold (ratio)); higher = stronger signal-on switching upon ATP binding; sequences stand for … in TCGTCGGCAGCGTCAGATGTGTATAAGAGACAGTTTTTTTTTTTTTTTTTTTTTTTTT…TC
Conditions: aptamer strand: ATP DNA aptamer (quencher-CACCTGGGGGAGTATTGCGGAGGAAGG + anchor), 100 nM annealed; ATP concentration: 500 uM
value.kind: switch fluorescence ratio
Answer using only a numeral; do not append any unit.

| sequence.data | tested.on | switch fluorescence ratio |
| --- | --- | --- |
| AAGTCCAATG | ATP | 1.01 |

Query `TTTGAATAGG` yields switch fluorescence ratio of 1.01

Query `TTGGGGAGGG` yields switch fluorescence ratio of 1.02

Query `TTTAAGTCGT` yields switch fluorescence ratio of 0.974

Query `GTTTGCAAAT` yields switch fluorescence ratio of 0.991

* * *

Catalogue of switch fluorescence ratio values
System: ATP;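 also: ATP exposure 15 min at 22 °C before imaging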
Test: switch fluorescence ratio, 500 uM ATP over buffer (Cy3 cluster intensity, sum of 5 cycles each) (fold (ratio)); higher = stronger signal-on switching upon ATP binding; sequences stand for … in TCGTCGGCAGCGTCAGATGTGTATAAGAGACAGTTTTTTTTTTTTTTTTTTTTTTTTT…TC
Conditions: aptamer strand: ATP DNA aptamer (quencher-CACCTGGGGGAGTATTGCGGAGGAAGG + anchor), 100 nM annealed; ATP concentration: 500 uM
Answer using only a numeral; do not append any unit.

Query `ATGTGATGAA` yields switch fluorescence ratio of 0.973

Query `GCTATATTGG` yields switch fluorescence ratio of 0.993

Query `GGGTATGGCT` yields switch fluorescence ratio of 1.02

Query `AAAGGGAAAT` yields switch fluorescence ratio of 0.975

Query `GGGGGTGAAT` yields switch fluorescence ratio of 1

Query `GTTGTTAATT` yields switch fluorescence ratio of 1.01

* * *

Test system: ATP;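 also: ATP exposure 15 min at 22 °C before imaging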
Assay: switch fluorescence ratio, 500 uM ATP over buffer (Cy3 cluster intensity, sum of 5 cycles each) (fold (ratio)); higher = stronger signal-on switching upon ATP binding; sequences stand for … in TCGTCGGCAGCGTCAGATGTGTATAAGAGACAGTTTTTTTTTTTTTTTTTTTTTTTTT…TC
Conditions: aptamer strand: ATP DNA aptamer (quencher-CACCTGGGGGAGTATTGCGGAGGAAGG + anchor), 100 nM annealed; ATP concentration: 500 uM
Catalogue of switch fluorescence ratio values

Observe how each entry below is paired with its result.
| sequence.data | tested.on | value.kind | measurement |
| --- | --- | --- | --- |
| TTGGGGGTTG | ATP | switch fluorescence ratio | 1 |
| GGAGAAAAGA | ATP | switch fluorescence ratio | 0.986 |

Simply: `GACTGGAGGA` , ATP, switch fluorescence ratio = 0.985

Simply: `AAGTCTGCAG` , ATP, switch fluorescence ratio = 1

Simply: `GTCGCTAATG` , ATP, switch fluorescence ratio = 0.996

Simply: `GTTAAACGTT` , ATP, switch fluorescence ratio = 1

Simply: `GATTTTGTCT` , ATP, switch fluorescence ratio = 0.992

Simply: `AAAGTACCCG` , ATP, switch fluorescence ratio = 1.07

Simply: `AAAGAGGGGG` , ATP, switch fluorescence ratio = 1.03
